experiment_notes: Solubility of amorphous substance in solvent systems (supersaturated solution, oscillated 24 h at room temperature, HPLC)
Format: physicochemical
cond: dehydrated alcohol-propylene glycol-water solvent mixture, aqueous with cosolvent or surfactant or cyclodextrin, thermodynamic from solid, Dehydrated alcohol 30%-propylene glycol 50%-water 20% (w/w); read-out: Solubility
measurement_type: solubility at 24 h

### Prompt For the molecule shown here, Cc1ncsc1-c1ccc(CNC(=O)[C@@H]2C[C@@H](O)CN2C(=O)[C@@H](NC(=O)COCCCCOc2ccc(-c3ccc(N4C(=S)N(c5ccc(C#N)c(C(F)(F)F)c5F)C(=O)C4(C)C)cn3)cc2)C(C)(C)C)cc1 , give the reported solubility at 24 h.
### Response > 178 mg/mL
